I'd appreciate it if you could supply IC50 values for the items below.
tested on: Lysozyme; assay: Test for the inhibitory activity on the formation of AGE (lysozyme dimer formation, SDS gel electrophoresis, densitometry); format: biochemical; details: AGE-inhibitory action, lysozyme 20 mg/ml, pH 7.4, 200 mmol/l glucose or xylose, 24 to 120 hours
# value in µM; strip the unit string

Note down IC50 recorded for "O=c1oc(/C=C/c2ccc(O)c(O)c2)cc(O)c1C(c1ccc(O)c(O)c1)c1c(O)cc(/C=C/c2ccc(O)c(O)c2)oc1=O" 4

Note down IC50 recorded for "O=c1oc(/C=C/c2ccc(O)c(O)c2)cc(O)c1C(c1ccc(Cl)cc1)c1c(O)cc(/C=C/c2ccc(O)c(O)c2)oc1=O" 4

Note down IC50 recorded for "COc1ccc(C(c2c(O)cc(/C=C/c3ccc(O)c(O)c3)oc2=O)c2c(O)cc(/C=C/c3ccc(O)c(O)c3)oc2=O)cc1O" 2

Note down IC50 recorded for "COc1ccc(C(c2c(O)cc(/C=C/c3ccc(O)c(O)c3)oc2=O)c2c(O)cc(/C=C/c3ccc(O)c(O)c3)oc2=O)cc1OC" 5

Note down IC50 recorded for "CC(C)(C)c1cc(C(c2c(O)cc(/C=C/c3ccc(O)c(O)c3)oc2=O)c2c(O)cc(/C=C/c3ccc(O)c(O)c3)oc2=O)cc(C(C)(C)C)c1O" 2

Note down IC50 recorded for N=C(N)NN [aminoguanidine, reference compound] 4500

Note down IC50 recorded for "N#Cc1ccc(C(c2c(O)cc(/C=C/c3ccc(O)c(O)c3)oc2=O)c2c(O)cc(/C=C/c3ccc(O)c(O)c3)oc2=O)cc1" 22

Note down IC50 recorded for "COc1ccc(C(c2c(O)cc(/C=C/c3ccc(O)c(O)c3)oc2=O)c2c(O)cc(/C=C/c3ccc(O)c(O)c3)oc2=O)cc1" 2

Data credit: patent US5731344A
